System: MiaPaca-2 cells
Assay: MiaPaca-2 cell proliferation assay
Assay type: cell-based
Settings: Homo sapiens, MIA PaCa-2; 67-72 h incubation, resazurin; read-out: MiaPaca-2 (inhibition of cell proliferation, IC50)
Description: Miapaca-2 cells (catalog #CRL-1420) are obtained from the American Type Culture Collect (ATTC, Manassas, VA). […] Plates are read on a Synergy2 or equivalent reader (Biotek, Winooski VT) using an excitation of 540 nm and an emission of 600 nm. Data is analyzed using Prism software (GraphPad, San Diego, CA) to calculate IC50 values.
endpoint-label: IC50

Here's what some known entries look like.
compound: Cc1ccc(NC(=O)c2cc(C(F)(F)F)cnn2)cc1-c1nc(OCCO)cc(N2CCOCC2)n1 [Example 43]
endpoint-label: IC50
experimental-result: < 100 nM
//
compound: Cc1ccc(NC(=O)c2cc(C3CC3)cnn2)cc1-c1cncc(N2CCOCC2)n1 [Example 55]
endpoint-label: IC50
experimental-result: 1000 to 10000 nM
//
compound: Cc1ccc(NC(=O)c2cc(C(F)(F)F)cnn2)cc1-c1cc(N[C@H](C)CO)nc(N2C[C@H]3C[C@@H]2CO3)c1 [Example 93]
endpoint-label: IC50
experimental-result: < 100 nM
//
compound: Cc1ccc(NC(=O)c2cc(C(F)(F)F)cnn2)cc1-c1cccc(N2CCOCC2)c1 [Example 41]
endpoint-label: IC50
experimental-result: 100 to 500 nM
//
compound: Cc1ccc(NC(=O)c2cc(C(F)(F)F)cnn2)cc1-c1cncc(N2CCOCC2)n1 [Example 59]
endpoint-label: IC50
experimental-result: 500 to 1000 nM
//
compound: Cc1cc(-c2cc(NC(=O)c3cc(C4CC4)cnn3)ccc2C)cc(N2CCOCC2)n1 [Example 20]
endpoint-label: IC50
experimental-result: 100 to 500 nM

Look at this compound and give its reported IC50. Cc1ccc(NC(=O)c2cc(C(F)(F)F)cnn2)cc1-c1cc(N2CCOCC2)nc(N[C@H](C)CO)n1 [Example 33]
100 to 500 nM

Same thing, different compound: Cc1ccc(NC(=O)c2cc(C3CC3)cnn2)cc1-c1ccnc(N2CCOCC2)c1 [Example 2]
100 to 500 nM

Same thing, different compound: Cc1ccc(NC(=O)c2cc(C(F)(F)F)cnn2)cc1-c1cc(N[C@H](C)CO)nc(N2CCOCC2)n1 [Example 28]
< 100 nM

Same thing, different compound: Cc1ccc(NC(=O)c2cncc(C3CC3)c2)cc1-c1cc(N[C@H](C)CO)nc(N2CCOCC2)c1 [Example 18]
100 to 500 nM

Same thing, different compound: Cc1ccc(NC(=O)c2cnc(C3CC3)nc2)cc1-c1cc(N[C@H](C)CO)nc(N2CCOCC2)c1 [Example 17]
500 to 1000 nM

Same thing, different compound: Cc1ccc(NC(=O)c2cc(Br)cnn2)cc1-c1cc(N[C@H](C)CO)nc(N2CCOCC2)c1 [Example 82]
100 to 500 nM

Same thing, different compound: Cc1ccc(NC(=O)c2cc(Cl)cnn2)cc1-c1cccc(N2CCOCC2)c1 [Example 75]
1000 to 10000 nM

Provenance of the data: patent US20250206729A1
